Reference for the values: the supplement of paper PMC9732359

Listed below: protein stability index values for each entry.
method: protein stability index of a GFP-peptide fusion (yeast GPS) (PSI 1-4); higher = more stable; sorted into four equal gates, so the index is relative within each strain
test conditions: san1∆

// known answers, use as guide
[[record]]
sequence_code = "LLGTMAGGAADCQFWET [PRE2]"
reported_measurement = 2.22

[[record]]
sequence_code = "EDGRTLSDYNIQKESTL [RPS31]"
reported_measurement = 3.05

[[record]]
sequence_code = "NRTVLLKIFKIFCIDLE [SRB8]"
reported_measurement = 1.89

[[record]]
sequence_code = "LFKGTGFNSWEGLFWEK [PRP8]"
reported_measurement = 3.36

[[record]]
sequence_code = "FDFLMNMPNCDYLTLNK [RPN2]"
reported_measurement = 2.07

[[record]]
sequence_code = "ELNQDRLGGDDLRIRIK [SNF5]"
reported_measurement = 3.21


Fill blank: measured protein stability index of the sequence SPYERRLIDLIRNSGEK [RPL36A] is ____.
1.68

What does the data say about its protein stability index? Entry: SDERAKLELINRYAYVL [LRP1]
2.79

Returns the measured protein stability index for the input sequence. Input: FLLEKAGERKIPHDLNF [TAF14]
2.61

Looking for the measured protein stability index of SRPEYSCTFWSDKESNA [YJL039C/NUP192] , can you help?
2.51

Reported protein stability index for LNFKDDKKYKGLTTVWL [REC8] : what is it?
2.64

* * *

method: protein stability index of a GFP-peptide fusion (yeast GPS) (PSI 1-4); higher = more stable; sorted into four equal gates, so the index is relative within each strain
test conditions: pdr5∆
Think of 3 as a floor: if protein stability index stands on it or above, it is label 1; beneath it, label 0.

Would you please look over these solved cases?
[[record]]
sequence_code = "ALQILNSGIIPGNRNAD [FAS2]"
group = "label 0"

[[record]]
sequence_code = "NEQAARAANQGALPPDL [CYT1]"
group = "label 1"

[[record]]
sequence_code = "NYLLKRNEDARRNLRYG [RPO31]"
group = "label 1"


Is the recorded value of protein stability index equal to or greater than 3 for this sequence? FLLEKAGERKIPHDLNF [TAF14]
label 0

protein stability index >= 3 for PGNNIPYMNHKNTSSMD [GAL11] ?
label 0

I'd appreciate it if you could say whether KLVRDSFTSATERHIQV [PRE7] has protein stability index at least equal to 3.
label 0

* * *

protein stability index for assorted sequences
method: protein stability index of a GFP-peptide fusion (yeast GPS) (PSI 1-4); higher = more stable; sorted into four equal gates, so the index is relative within each strain
test conditions: san1∆
Simply state the number, no unit and no words.

Example entries begin here.
[[record]]
sequence_code = "EQFKMVSMITDHNALPQ [POP1]"
reported_measurement = 2.28

[[record]]
sequence_code = "STLHMLGYTHIAINFTV [RPP1]"
reported_measurement = 1.45

[[record]]
sequence_code = "MFKLGNFESPVLKELSR [YLR018C/POM34]"
reported_measurement = 2.85

[[record]]
sequence_code = "VQQQQQQQLRNQIQRQQ [SNF5]"
reported_measurement = 2.07


Which value of protein stability index has been reported for FVIHIQEKNFQTGIFVY [RPB5] in the records?
1.54

Find the recorded protein stability index belonging to SVNFFVSLLKKNWQNVG [RPL1A] and report it.
1.25

Please give the measured protein stability index for this sequence: STLTTISGNPPLLYNSL [SRB5]
2.49

* * *

method: protein stability index of a GFP-peptide fusion (yeast GPS) (PSI 1-4); higher = more stable; sorted into four equal gates, so the index is relative within each strain
test conditions: pdr5∆
Please note: rule met applies when protein stability index is 2 or greater, and rule not met applies otherwise.

Some entries whose results are on file:
[[record]]
sequence_code = "EDVLVNQILMSVNFFVS [RPL1A]"
group = "rule met"

[[record]]
sequence_code = "IDDENITKLNKEIRAFD [SRB4]"
group = "rule met"

[[record]]
sequence_code = "ILEESLNAIILKLEKLN [SMC3]"
group = "rule not met"

[[record]]
sequence_code = "FELFDNKTAHLSIPGKS [SNU114]"
group = "rule met"


Check this sequence for protein stability index at or above 2: DRQCMIMDELLSSIAER [DIB1]
rule met

Check if protein stability index >= 2 (inclusive). Item: ELEKYNELERNRKIYQF [SMC3]
rule met

Hi, just wondering whether MYTRLCICSGMLFEMDG [SIN4] shows protein stability index of 2 or higher.
rule not met

protein stability index >= 2 for TDRLSTTQRRYEKAQKD [SMC1] ?
rule met

Entry INCNKETIENVKLQMIK [ECM29] : is its protein stability index no less than 2?
rule met

* * *

method: protein stability index of a GFP-peptide fusion (yeast GPS) (PSI 1-4); higher = more stable; sorted into four equal gates, so the index is relative within each strain
test conditions: san1∆
readout name: protein stability index
Quick one: just the number, no unit, thanks!

[[record]]
sequence_code = "AASTPTTTATPHANPIT [PGD1]"
reported_measurement = 2.92


Please find the next sequence below.
Find the recorded protein stability index belonging to DDPFMTKSGATTSEKQE [GAL11] and report it.
2.82

* * *

protein stability index for assorted sequences
method: protein stability index of a GFP-peptide fusion (yeast GPS) (PSI 1-4); higher = more stable; sorted into four equal gates, so the index is relative within each strain
test conditions: pdr5∆
Answer with a bare number; do not write a unit.

Worked examples follow.
[[record]]
sequence_code = "LHANGASFFFMVMFMHM [COB]"
reported_measurement = 1.36

[[record]]
sequence_code = "QSNINTNAPLRTLNIQP [YIL149C/MLP2]"
reported_measurement = 2.36

[[record]]
sequence_code = "TGNNLYDRNSNNNHKDK [SWI1]"
reported_measurement = 3.12

[[record]]
sequence_code = "IAKLVAVLNVSPVYDVD [NUT1]"
reported_measurement = 2.05

[[record]]
sequence_code = "ENVKIINYLLTLAITTV [RPN2]"
reported_measurement = 3.03


I would be grateful if you could share the reported protein stability index for QLAQIRQFLKANKTNLI [YML103C/NUP188] .
2.81

Find the recorded protein stability index belonging to MTTSAVSPTVGKLFSDI [YIL149C/MLP2] and report it.
3.33

* * *

method: protein stability index of a GFP-peptide fusion (yeast GPS) (PSI 1-4); higher = more stable; sorted into four equal gates, so the index is relative within each strain
test conditions: pdr5∆
# protein stability index >= 3 gives fulfilled, anything below gives not fulfilled

# bool: protein stability index of IKVLLRQNRRPELGDKF [RET1] >= 3
fulfilled

For this sequence, is measured protein stability index 3 or higher? TYRSRAQQVPPYGVYHP [SIN4]
not fulfilled

Reported protein stability index at or above 3? ILDAICFVLGIASMSTV [SMC2]
not fulfilled

Is protein stability index for QSFQNPFTASQSNINTN [YIL149C/MLP2] at or above 3?
not fulfilled

Test whether the sequence ITKFALFAESHDVLQKL [YML103C/NUP188] records protein stability index of 3 or higher.
not fulfilled

Does protein stability index meet or surpass 3 for YEDSGSTYKHDRGIANI [SRB4] ?
fulfilled

Given KRPRSRTLTAVHDKILE [RPS7A] , state whether its protein stability index is at least 3.
not fulfilled

Item ETLENNIVSVLTAGVNS [RPN11] with protein stability index of 3 or above?
not fulfilled

Would you say VFYAPNVKNYSTTQEIL [RPC34] shows protein stability index at minimum 3?
not fulfilled

Decide: protein stability index of VSTPEKWDITTRNSNNL [BRR2] >= 3?
fulfilled

Could you verify whether the entry RKAYFTAPSSERRVLLS [RPL26B] shows protein stability index of no less than 3?
not fulfilled

Could you tell me if the measured protein stability index of QTFGVDILAKLFSLEKP [SWI1] reaches 3 or more?
not fulfilled

* * *

method: protein stability index of a GFP-peptide fusion (yeast GPS) (PSI 1-4); higher = more stable; sorted into four equal gates, so the index is relative within each strain
test conditions: ubr1∆
readout name: protein stability index
Number only, please.

I would be grateful if you could share the reported protein stability index for IDKLSDVVMKATEPQMV [PRP8] .
2.28

Requested field: protein stability index. Item: NYNRIAKICALLFFNFS [NUT1]
1.61

Would you mind telling me what protein stability index value was observed for PDTSNEICDLAYQYVRA [SRB2] ?
3

// query protein stability index value for entry LIIQYPPNNARRTYNTL [ISW2]
2.33

Requested read-out: protein stability index. Entry: LGINLVTADTVILFDSD [ISW2]
2.94

Given the sequence WGGFPLDISVFLLEKAG [TAF14] , what is its reported protein stability index?
3.15

For KSTDLTPKGNESEQELS [MTR3] , what is its reported protein stability index?
3.21

What measured protein stability index goes with SKTHKTVSRAYGGSRCA [RPL34A] ?
2.85

Fill in the blank: the reported protein stability index of ARKSAPSTGGVKKPHRY [HHT1] is ____.
2.03

Recorded protein stability index of FMKKLRAAKLAAPENEK [RPS15] , please.
3.48
